Molecular target: LIG1 E346A/E592A (EE/AA) low-fidelity mutant (Homo sapiens, UniProt P18858 1-919, E346A;E592A)
Sequence (P18858 whole entry E346A/E592A): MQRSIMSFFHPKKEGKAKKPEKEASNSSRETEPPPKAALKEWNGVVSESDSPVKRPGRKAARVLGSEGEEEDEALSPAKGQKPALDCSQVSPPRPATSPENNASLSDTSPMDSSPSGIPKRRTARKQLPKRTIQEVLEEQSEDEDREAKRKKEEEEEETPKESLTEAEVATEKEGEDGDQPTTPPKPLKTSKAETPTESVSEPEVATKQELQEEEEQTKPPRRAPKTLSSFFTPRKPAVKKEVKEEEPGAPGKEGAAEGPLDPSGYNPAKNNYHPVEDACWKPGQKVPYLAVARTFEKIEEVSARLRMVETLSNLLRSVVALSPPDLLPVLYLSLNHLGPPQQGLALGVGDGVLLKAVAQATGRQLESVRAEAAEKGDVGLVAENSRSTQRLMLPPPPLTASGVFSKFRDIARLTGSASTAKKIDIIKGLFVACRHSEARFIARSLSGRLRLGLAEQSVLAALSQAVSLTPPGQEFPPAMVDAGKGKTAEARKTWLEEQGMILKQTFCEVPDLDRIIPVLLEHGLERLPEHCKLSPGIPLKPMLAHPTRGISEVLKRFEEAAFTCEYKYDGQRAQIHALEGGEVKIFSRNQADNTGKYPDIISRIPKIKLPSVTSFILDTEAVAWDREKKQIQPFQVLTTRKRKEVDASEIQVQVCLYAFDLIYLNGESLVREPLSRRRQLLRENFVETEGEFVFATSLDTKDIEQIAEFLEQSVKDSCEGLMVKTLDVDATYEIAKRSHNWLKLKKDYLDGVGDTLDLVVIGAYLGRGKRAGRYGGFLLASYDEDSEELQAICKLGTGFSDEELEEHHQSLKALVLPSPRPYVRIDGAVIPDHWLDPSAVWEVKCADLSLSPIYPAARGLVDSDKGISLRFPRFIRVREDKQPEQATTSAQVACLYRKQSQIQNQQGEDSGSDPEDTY
Assay: BLI; no Mg2+ or ATP listed in kinetics buffer; BLI (Octet QKe, streptavidin sensors, 40 nM DNA loaded, LIG1 10-2430 nM): Hepes pH 7.4, 200 mM NaCl, 0.5% BSA, 0.05% Tween 20, 20 °C; 1:1 binding model
Conditions: protein: recombinant; tags: His-tag; label: 3'-biotin on downstream strand (S2); 1-nt gap opposite template T; 34-nt template (S7 equals S4 reversed to 5'-3') with 17-nt upstream and 16-nt downstream strands; outer ends blunt
measure: Kd

Task: Name the recorded Kd for one-nucleotide-gap DNA, template T (BLI) (dsDNA) DNA 1: CATGGGCGGCATGAACC DNA 2: GAGGCCCATCCTCACC DNA 3: GGTGAGGATGGGCCTCTGGTTCATGCCGCCCATG .
Result: ~20 nM

Reference source for all entries: paper PMC8024709
